Catalogue of PBM binding z-score readings, one per entry.
- System: PPARg DBDmut:RXRa IVT, anti-PPARg (DBD mutation: PPARg1 K132A/R137A, NR concentration 270 nM, RXRa partner concentration 90 nM)
- Test: PBM binding z-score (relative to random genomic background probes); higher = stronger binding; sequences stand for … in GC…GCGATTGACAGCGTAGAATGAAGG

Consider the following illustrative entries.
CGTCCAAGGTCAATGCTAGGTTAGTGAAAGCATT | 0.204
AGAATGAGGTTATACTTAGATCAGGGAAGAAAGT | 1.21
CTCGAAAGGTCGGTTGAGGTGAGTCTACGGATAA | -0.0486

Sample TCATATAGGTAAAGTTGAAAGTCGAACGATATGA — what was its PBM binding z-score? 1.6

Look up PBM binding z-score for this sequence: ATTTGTAGGTTAAGGGTCATTCAGGTTGGTTCGC 4.62

Recorded PBM binding z-score for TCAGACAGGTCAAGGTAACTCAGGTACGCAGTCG , please? 0.0851

Which PBM binding z-score value is on record for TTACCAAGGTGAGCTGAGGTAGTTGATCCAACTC ? 0.143

Entry CCGACTGTGGCAGAAAGGTTACCATACCATCCGG has what PBM binding z-score? -0.741

I am curious: what PBM binding z-score value has been reported for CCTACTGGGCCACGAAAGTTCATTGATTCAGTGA ? 0.407
